B1: LINE1-mini (parent)
chain: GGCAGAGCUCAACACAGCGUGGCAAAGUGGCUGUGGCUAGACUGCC

variants of: B1; experiment: self-cleavage, relative activity (ratio to wild type); higher = more cleavage; in vitro, sequencing; the parent is a self-cleaving ribozyme
Decide by self-cleavage: equal to or exceeding 0.1 means 1, less means -1.

Before answering, review these 3 worked examples.
- MUT: "A6G C15G"
  CLASS_LABEL: -1
- MUT: "G7U A12C"
  CLASS_LABEL: -1
- MUT: "A6U G29A"
  CLASS_LABEL: 1

Inquiry: Hi team, for U32G C37U , is the recorded self-cleavage at or above 0.1?
Reply text: -1
